Tested on: SNB75
experimentalProtocol: Loewe synergy score (Combenefit); higher = more synergy; extreme values may be limits of the assay
experimentalContext: exposure time: 72 h
measuredMetric: Loewe synergy score

compound	value
Nc1ccn([C@@H]2O[C@H](CO)[C@@H](O)C2(F)F)c(=O)n1 [Gemcitabine] + Cc1cc([C@@H](C)Nc2ccccc2C(=O)O)c2nc(N3CCOCC3)cc(=O)n2c1 [AZD6482]	3.53
CO[C@H]1C[C@@H]2CC[C@@H](C)[C@@](O)(O2)C(=O)C(=O)N2CCCC[C@H]2C(=O)O[C@H]([C@H](C)C[C@@H]2CC[C@@H](O)[C@H](OC)C2)CC(=O)[C@H](C)/C=C(\C)[C@@H](O)[C@@H](OC)C(=O)[C@H](C)C[C@H](C)/C=C/C=C/C=C/1C [Rapamycin] + Cc1cc([C@@H](C)Nc2ccccc2C(=O)O)c2nc(N3CCOCC3)cc(=O)n2c1 [AZD6482]	21.8
CCCCCCCCCCCC1=C(O)C(=O)C=C(O)C1=O [Embelin] + O=c1[nH]c2ccccc2n1C1CCN(Cc2ccc(-c3[nH]c4cc5ncnc5cc4nc3-c3ccccc3)cc2)CC1 [Akt inhibitor VIII]	1.11

* * *

System: KNS-42
experimentalProtocol: Loewe synergy score (Combenefit); higher = more synergy; extreme values may be limits of the assay
experimentalContext: exposure time: 72 h

molecule	Loewe synergy score
CCCCCCCCCCCC1=C(O)C(=O)C=C(O)C1=O [Embelin] + O=c1[nH]c2ccccc2n1C1CCN(Cc2ccc(-c3[nH]c4cc5ncnc5cc4nc3-c3ccccc3)cc2)CC1 [Akt inhibitor VIII]	21.4
CC(=O)O[C@@]12CO[C@@H]1C[C@H](O)[C@@]1(C)C(=O)[C@H](O)C3=C(C)[C@@H](OC(=O)[C@H](O)[C@@H](NC(=O)OC(C)(C)C)c4ccccc4)C[C@@](O)([C@@H](OC(=O)c4ccccc4)[C@H]21)C3(C)C [Docetaxel] + C#Cc1cccc(Nc2ncnc3cc(OCCOC)c(OCCOC)cc23)c1 [Erlotinib]	7.84
Nc1ccn([C@@H]2O[C@H](CO)[C@@H](O)C2(F)F)c(=O)n1 [Gemcitabine] + Cc1cc([C@@H](C)Nc2ccccc2C(=O)O)c2nc(N3CCOCC3)cc(=O)n2c1 [AZD6482]	5.37
Cc1cc([C@@H](C)Nc2ccccc2C(=O)O)c2nc(N3CCOCC3)cc(=O)n2c1 [AZD6482] + CCOc1nc(NC(=O)Cc2cc(OC)ccc2OC)cc(N)c1C#N [JNK inhibitor VIII]	0.866

* * *

Listed compounds paired with reported Bliss synergy score
Tested on: U118
experimentalProtocol: Bliss synergy score (Combenefit); higher = more synergy; extreme values may be limits of the assay
experimentalContext: exposure time: 72 h

compound	Bliss synergy score
CCC(=O)N1CCN(c2ccc(-n3c(=O)ccc4cnc5ccc(-c6cnc7ccccc7c6)cc5c43)cc2C(F)(F)F)CC1 [Torin1] + C#Cc1cccc(Nc2ncnc3cc(OCCOC)c(OCCOC)cc23)c1 [Erlotinib]	2.65
CC(=O)O[C@@]12CO[C@@H]1C[C@H](O)[C@@]1(C)C(=O)[C@H](O)C3=C(C)[C@@H](OC(=O)[C@H](O)[C@@H](NC(=O)OC(C)(C)C)c4ccccc4)C[C@@](O)([C@@H](OC(=O)c4ccccc4)[C@H]21)C3(C)C [Docetaxel] + C#Cc1cccc(Nc2ncnc3cc(OCCOC)c(OCCOC)cc23)c1 [Erlotinib]	0.59
CCCCCCCCCCCC1=C(O)C(=O)C=C(O)C1=O [Embelin] + O=c1[nH]c2ccccc2n1C1CCN(Cc2ccc(-c3[nH]c4cc5ncnc5cc4nc3-c3ccccc3)cc2)CC1 [Akt inhibitor VIII]	1.02
Nc1ccn([C@@H]2O[C@H](CO)[C@@H](O)C2(F)F)c(=O)n1 [Gemcitabine] + C[C@@H](Oc1cc(-c2cnn(C3CCNCC3)c2)cnc1N)c1c(Cl)ccc(F)c1Cl [Crizotinib]	0.063
